study_system: BTK (Homo sapiens)
Construct: The GM01501.3 cell line endogenously expresses BTK with a HiBiT fusion tag via CRISPR knock-in at its C-terminal region; endogenous in cells; host or cells: GM01501.3 (GM01501 cells engineered by CRISPR knock-in of HiBiT at the BTK locus)
Sequence (Q06187 whole entry, the tested form may be a part): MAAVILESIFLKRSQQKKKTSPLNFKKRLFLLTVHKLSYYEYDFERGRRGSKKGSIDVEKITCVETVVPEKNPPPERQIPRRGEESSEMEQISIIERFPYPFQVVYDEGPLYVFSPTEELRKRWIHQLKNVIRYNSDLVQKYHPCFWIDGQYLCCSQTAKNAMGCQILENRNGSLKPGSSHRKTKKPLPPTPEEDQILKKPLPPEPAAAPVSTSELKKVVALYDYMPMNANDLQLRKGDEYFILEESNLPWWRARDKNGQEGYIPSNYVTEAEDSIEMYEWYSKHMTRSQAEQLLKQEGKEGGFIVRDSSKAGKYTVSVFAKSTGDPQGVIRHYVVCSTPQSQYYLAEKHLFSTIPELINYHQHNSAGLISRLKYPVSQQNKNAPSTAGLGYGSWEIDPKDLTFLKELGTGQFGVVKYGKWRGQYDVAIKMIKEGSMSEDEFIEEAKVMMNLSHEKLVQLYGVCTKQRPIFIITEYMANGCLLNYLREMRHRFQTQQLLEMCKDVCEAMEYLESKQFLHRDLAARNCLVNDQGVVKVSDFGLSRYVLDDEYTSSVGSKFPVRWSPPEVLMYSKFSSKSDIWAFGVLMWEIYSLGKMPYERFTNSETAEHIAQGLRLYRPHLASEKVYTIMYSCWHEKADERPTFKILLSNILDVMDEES
experimental_details: BTK degradation assay using the HiBiT Method (Nano-Glo HiBiT Lytic Assay, GM01501.3 cells)
Assay type: cell-based
protocol_conditions: HiBiT Degradation on GM01501.3 BTK @ 6 hours
property_label: DC50

[[record]]
compound = "Cc1cc(-c2ncnn3cc(-c4ccc(CN5CCC(c6ccc(N[C@H]7CCC(=O)NC7=O)cc6F)CC5)cc4)cc23)ccc1CNC(=O)c1noc(C(C)(C)C)n1"
study_system = "BTK (Homo sapiens)"
test_result = "< 0.1 µM"

[[record]]
compound = "Cn1nc(N2CCC(=O)NC2=O)c2ccc(C3CCN(Cc4ccc(-c5cc6c(-c7ccc(CNC(=O)c8noc(C(C)(C)C)n8)c(F)c7)ncnn6c5)cn4)CC3)cc21"
study_system = "BTK (Homo sapiens)"
test_result = "< 0.1 µM"

[[record]]
compound = "CC(C)(C)c1nc(C(=O)NCc2ccc(-c3ncnn4cc(-c5ccc(OCCN6CCC(n7ccc(NC8CCC(=O)NC8=O)n7)CC6)cc5)cc34)cc2F)no1 (stereo not drawn)"
study_system = "BTK (Homo sapiens)"
test_result = "< 0.1 µM"

[[record]]
compound = "Cc1cc(-c2ccnn3cc(-c4ccc(CN5CCC(c6ccc(NC7CCC(=O)NC7=O)cc6)CC5)cc4)cc23)ccc1CNC(=O)c1noc(C(C)(C)C)n1 (stereo not drawn)"
study_system = "BTK (Homo sapiens)"
test_result = "< 0.1 µM"

[[record]]
compound = "Cc1cc(-c2ncnn3cc(C#CCCN4CCC(c5ccc(C6CCC(=O)NC6=O)cc5)CC4)cc23)ccc1CNC(=O)c1noc(C(C)(C)C)n1 (stereo not drawn)"
study_system = "BTK (Homo sapiens)"
test_result = "0.1 to 0.5 µM"

[[record]]
compound = "Cc1cc(-c2ncnn3cc(-c4ccc(CN5CCC(c6cnc(NC7CCC(=O)NC7=O)nc6)CC5)cc4)cc23)ccc1CNC(=O)c1noc(C(C)(C)C)n1 (stereo not drawn)"
study_system = "BTK (Homo sapiens)"
test_result = "< 0.1 µM"

